assay: Boiling temperature at pressure P; conditions: 101.3 kPa; Liquid; Ebulliometric method (Recirculating still)
measured.quantity: Boiling temperature at pressure P (°C)

# molecule, measured.quantity, assay.value
records = [
    ("CCCCOC(C)=O [butyl ethanoate]", "Boiling temperature at pressure P", 126.11),
    ("CC(C)OC(C)C", "Boiling temperature at pressure P", 68.62),
]

P. CC(C)O
Q. CCOCCO
IN: Decide: P or Q , by lowest recorded Boiling temperature at pressure P. I would appreciate it if you answered with the label of your choice.
OUT: P
(P: 82.12 °C, Q: 135.04 °C)
